Test system: HSL
Assay: HSL mRNA expression in adipocytes (real-time PCR)
Type: cell-based, human
Settings: differentiating adipocytes transfected with oligomeric compound; Table 75
In the oligonucleotide strings, read from the 5' end, every base follows the letter of its sugar. An asterisk marks phosphorothioate; unmarked linkages are phosphodiester. Other units and linkages are bracketed, terminal groups are in braces. A string of capitals states the bases alone. e = 2'-O-(2-methoxyethyl) (MOE); [5mC] = 5-methylcytosine
Items are presented alongside their recorded HSL mRNA.

SUBSTANCE	HSL mRNA
327971 (antisense eG*eG*eA*eA*eA*eT*e[5mC]*e[5mC]*e[5mC]*eT*eG*eG*e[5mC]*eA*eA*eT*eG*eT*eG*eA*eT) [compound 327971]	38 percentage of untreated control (UTC)

Field request: HSL mRNA | item: 328113 (antisense e[5mC]*eA*eA*eA*eA*eA*eT*eT*eA*eT*e[5mC]*eA*eG*e[5mC]*e[5mC]*eA*eG*eT*eT*eT*eA) [compound 328113]
83 percentage of untreated control (UTC)

Field request: HSL mRNA | item: 328101 (antisense eA*eA*eA*e[5mC]*e[5mC]*e[5mC]*e[5mC]*eT*eA*eT*e[5mC]*eA*e[5mC]*eG*eA*eT*eT*eA*eG*e[5mC]*eA) [compound 328101]
78 percentage of untreated control (UTC)

Field request: HSL mRNA | item: 327935 (antisense e[5mC]*eT*eA*e[5mC]*e[5mC]*eT*eG*e[5mC]*eA*e[5mC]*eT*eA*eT*eA*eA*eG*e[5mC]*eA*e[5mC]*eT*eT*eT*eA) [compound 327935]
61 percentage of untreated control (UTC)

* * *

Items are presented alongside their recorded mir-21 pri-miRNA expression % UTC.
System: mir-21 pri-miRNA
Test: mir-21 pri-miRNA expression in HeLa cells (real-time RT-PCR)
Format: cell-based, human
Settings: HeLa cells, 100 nM, real-time RT-PCR
In the oligonucleotide strings, read from the 5' end, every base follows the letter of its sugar. An asterisk marks phosphorothioate; unmarked linkages are phosphodiester. Other units and linkages are bracketed, terminal groups are in braces. A string of capitals states the bases alone. e = 2'-O-(2-methoxyethyl) (MOE); [5mC] = 5-methylcytosine
# output: bare number, implied unit % UTC

SUBSTANCE	MEASUREMENT TYPE	QUANTITY UNIT	DATA VALUE
358772 (eG*eA*eG*eA*eT*eT*e[5mC]*eA*eA*e[5mC]*eA*eG*eT*e[5mC]*eA*eA*e[5mC]*eA*eT*e[5mC]; antisense) [compound 358772]	mir-21 pri-miRNA expression % UTC	% UTC	245
358783 (antisense eG*eA*eG*eT*eT*eT*e[5mC]*eT*eG*eA*eT*eT*eA*eT*eA*eA*eA*e[5mC]*eA*eA) [compound 358783]	mir-21 pri-miRNA expression % UTC	% UTC	133

Next, consider the following substance.
Field request: mir-21 pri-miRNA expression % UTC | item: 358776 (antisense eT*eG*eT*e[5mC]*eA*eG*eA*e[5mC]*eA*eG*e[5mC]*e[5mC]*e[5mC]*eA*eT*e[5mC]*eG*eA*e[5mC]*eT) [compound 358776]
367

* * *

Test system: T47D cells
Assay: Caspase-3 activity assay (apoptosis) in T47D cells
Settings: T47D cells, 200 nM oligomeric compound, 48 hours; experiment of Table 10
In the oligonucleotide strings, read from the 5' end, every base follows the letter of its sugar. An asterisk marks phosphorothioate; unmarked linkages are phosphodiester. Other units and linkages are bracketed, terminal groups are in braces. A string of capitals states the bases alone. e = 2'-O-(2-methoxyethyl) (MOE); [5mC] = 5-methylcytosine; d = 2'-deoxy (DNA)
MEASUREMENT TYPE: Fold Increase over UTC (caspase-3 activity, apoptosis) (fold)
# output: bare number, implied unit fold

Some substances with known Fold Increase over UTC (caspase-3 activity, apoptosis) results, for comparison:
SUBSTANCE	QUANTITY UNIT	DATA VALUE
328696 (e[5mC]*eT*e[5mC]*eT*eA*dG*d[5mC]*dT*d[5mC]*d[5mC]*d[5mC]*dT*d[5mC]*dA*d[5mC]*e[5mC]*eA*eG*eT*eG; antisense) [compound 328696]	fold	1.5
328646 (eG*e[5mC]*eT*eT*eT*dT*dA*dG*dA*dA*d[5mC]*d[5mC]*dA*d[5mC]*dT*eG*e[5mC]*e[5mC]*eT*e[5mC]; antisense) [compound 328646]	fold	1.1
328398 (antisense eG*e[5mC]*e[5mC]*eA*eT*dT*dG*dG*dG*dA*d[5mC]*d[5mC]*dT*dG*d[5mC]*eA*e[5mC]*eA*eG*e[5mC]) [compound 328398]	fold	0.9
328657 (eA*eA*eA*eA*eA*dT*dA*dA*dT*d[5mC]*dT*d[5mC]*dT*dG*d[5mC]*eA*e[5mC]*eA*eG*eG; antisense) [compound 328657]	fold	0.8

Field request: Fold Increase over UTC (caspase-3 activity, apoptosis) | item: 328409 (antisense eG*e[5mC]*eT*eA*eG*dT*dG*dA*d[5mC]*dA*dG*dG*dT*dG*d[5mC]*eA*eG*eA*e[5mC]*eA) [compound 328409]
0.7
